These molecules were tested on Proteus rettgeri BC 7; MIC is the recorded read-out.
property-label: MIC (µg/mL)

>>> df
                                   molecule     measurement_target  observed_value
0  C[S+]([O-])c1ccc(Nc2ncc(NC(=O)NC(C(=O)NC3C(=O)N4C3SC(C)(C)C4C(=O)O)c3ccccc3)c(O)n2)cc1 (stereo not shown)  Proteus rettgeri BC 7             0.5

[a] CC1(C)S[C@@H]2[C@H](NC(=O)C(NC(=O)Nc3cnc(Nc4ccc(C(N)=O)c(O)c4)nc3O)c3ccc(O)cc3)C(=O)N2[C@H]1C(=O)O (stereo partly shown)
[b] CC1(C)S[C@@H]2[C@H](NC(=O)[C@H](NC(=O)Nc3cnc(Nc4ccc(S(N)(=O)=O)cc4)nc3O)c3ccc(O)c(O)c3)C(=O)N2[C@H]1C(=O)O
Query block: Exercise: compare a and b ; which one has the greater MIC? Refer to your chosen entry by its label in the reply.
Result block: b

---

- Tested on: Proteus mirabilis Hamburgensis
property-label: MIC (µg/mL)

compound	observed-value
CC1(C)S[C@@H]2[C@H](NC(=O)C(NC(=O)Nc3cnc(NCc4ccc(S(N)(=O)=O)cc4)nc3O)c3ccc(O)cc3)C(=O)N2[C@H]1C(=O)O (some centres unmarked)	0.06
CC1(C)S[C@@H]2[C@H](NC(=O)[C@H](NC(=O)Nc3cnc(Nc4cccc(S(N)(=O)=O)c4)nc3O)c3ccc(O)cc3)C(=O)N2[C@H]1C(=O)O	0.06

[A] CC1(C)S[C@@H]2[C@H](NC(=O)C(NC(=O)Nc3cnc(Nc4ccc(C(N)=O)c(O)c4)nc3O)c3ccc(O)cc3)C(=O)N2[C@H]1C(=O)O (some centres unmarked)
[B] CC1(C)S[C@@H]2[C@H](NC(=O)C(NC(=O)Nc3cnc(NCc4ccccc4)nc3O)c3ccccc3)C(=O)N2[C@H]1C(=O)O (some centres unmarked)
Query block: Parameter metric = MIC. Return the lower-valued option from A and B . Refer to your chosen entry by its label in the reply.
Result block: A

---

These compounds were tested on Proteus rettgeri BC 7; MIC is the recorded read-out.
property-label: MIC (µg/mL)

compound	measurement-target	property-label	observed-value
CC1(C)S[C@@H]2[C@H](NC(=O)C(NC(=O)Nc3cnc(NCc4ccccc4)nc3O)c3ccccc3)C(=O)N2[C@H]1C(=O)O (stereo partly drawn) [Verbindung 61]	Proteus rettgeri BC 7	MIC	0.5

[I] CC1(C)S[C@@H]2[C@H](NC(=O)C(NC(=O)Nc3cnc(Nc4ccc(C(N)=O)c(C(N)=O)c4)nc3O)c3ccc(O)cc3)C(=O)N2[C@H]1C(=O)O (stereo partly drawn) [Verbindung 55]
[II] CC1(C)SC2C(NC(=O)C(NC(=O)Nc3cnc(Nc4ccc(S(N)(=O)=O)c(O)c4)nc3O)c3ccc(O)cc3)C(=O)N2C1C(=O)O (stereo not drawn) [Verbindung 44]
Query block: Exercise: compare I and II ; which one has the greater MIC? Refer to your chosen entry by its label in the reply.
Result block: I
(I: 0.5 µg/mL, II: 0.25 µg/mL)

---

These compounds were tested on Proteus rettgeri BC 7; MIC is the recorded read-out.
property-label: MIC (µg/mL)

compound	observed-value
CC1(C)SC2C(NC(=O)C(NC(=O)Nc3cnc(Nc4ccc(S(N)(=O)=O)c(O)c4)nc3O)c3ccc(O)c(Cl)c3)C(=O)N2C1C(=O)O (centres unmarked) [Verbindung 49]	0.5
CN(C)S(=O)(=O)c1ccc(Nc2ncc(NC(=O)N[C@@H](C(=O)N[C@@H]3C(=O)N4[C@@H]3SC(C)(C)[C@@H]4C(=O)O)c3ccc(O)cc3)c(O)n2)cc1 [Verbindung 15]	1
CC1(C)SC2C(NC(=O)C(NC(=O)Nc3cnc(Nc4ccc(S(C)(=O)=O)cc4)nc3O)c3ccc(O)c(Cl)c3)C(=O)N2C1C(=O)O (centres unmarked) [Verbindung 25]	0.5
CC1(C)S[C@@H]2[C@H](NC(=O)C(NC(=O)Nc3cnc(NCc4ccc(F)cc4)nc3O)c3ccc(O)cc3)C(=O)N2[C@H]1C(=O)O (some centres unmarked) [Verbindung 60]	0.5
CC1(C)S[C@@H]2[C@H](NC(=O)[C@H](NC(=O)Nc3cnc(Nc4ccc(S(N)(=O)=O)cc4)nc3O)c3cccs3)C(=O)N2[C@H]1C(=O)O [Verbindung 2]	0.5

[A] CC1(C)SC2C(NC(=O)C(NC(=O)Nc3cnc(Nc4ccc([N+](=O)[O-])cc4)nc3O)c3ccccc3)C(=O)N2C1C(=O)O (centres unmarked) [Verbindung 41]
[B] CC1(C)S[C@@H]2[C@H](NC(=O)[C@H](NC(=O)N3CCNC3=O)c3ccccc3)C(=O)N2[C@H]1C(=O)O [A, reference compound]
Query block: Parameter metric = MIC. Return the lower-valued option from A and B . Refer to your chosen entry by its label in the reply.
Result block: A
